Cited source: PubChem BioAssay AID1903

- study_system: Large T antigen (Simian virus 40)
- method: SV40 large T antigen inhibitors, biochemical (AID 1903)
- experimental_conditions: SV40 large T antigen ATPase/helicase inhibition assay; at 20 µM; active compounds read high
Screen size: about 310,000 compounds; about 1,200 (0.39%) were called active. A selection follows. Potency and affinity values are given separately.
measurement_kind: inhibition (%)
One number for each entry, in %.

Check out these entries, answers already filled in.
• O=C(CSc1nc2c(cnn2-c2ccccc2)c(=O)[nH]1)N1CCCCC1 = 24.9
• CC1CCCN(S(=O)(=O)c2ccc(NC(=O)CNC3CCCC3)cc2)C1 (stereo not given) = 4.39

Go through the items and report each one's inhibition.
1. COc1cc2c(cc1/C=C/C(=O)O)OC(C)C2 (stereo not given)
2. COc1ccc(C(C)=O)cc1COc1ccc(Cl)cc1Cl
3. COc1ccc(Cn2c(=O)[nH]c3cc(C(=O)NC4CCN(Cc5ccccc5)CC4)ccc32)cc1
4. Cc1cccc(N2C(=O)/C(=C\c3ccc(C(=O)O)cc3)c3ccccc3C2=O)c1
5. COc1ccc(N2CCN(C(=S)Nc3cc(C)ccc3C)CC2)cc1

Response:
1. -5.46
2. 1.32
3. 1.67
4. 36.5
5. 3.41

Go through the items and report each one's inhibition.
1. COc1ccc(/C=N\NC(=O)C2=NNC(=O)C2C)cc1 (stereo not given)
2. COc1ccc(C(C2C(=O)CC(C)(C)CC2=O)C2C(=O)CC(C)(C)CC2=O)cc1
3. O=C(CNC(=O)C12CC3CC(CC(C3)C1)C2)NC1=NCCS1
4. Cc1csc(C(=O)NCC(=O)NNC(=O)c2cccc(Cl)c2)c1
5. O=C(Nc1cccnc1)/C(N=Nc1c(Cl)cccc1Cl)=C(\O)c1ccccc1
6. COc1ccc(C(=O)NC2CCCCC2)cc1S(=O)(=O)N1CCOCC1
7. CCOc1ccc(CCNC(=O)COC(=O)C2=NNC(=O)CC2)cc1OCC

Response:
1. 21.2
2. 25.9
3. 14.4
4. 0.72
5. 0.28
6. 1.05
7. 12.5

Go through the items and report each one's inhibition.
1. Cc1ccc(S(=O)(=O)N(C(=O)c2ccncc2)c2ccc(OC(=O)c3ccncc3)cc2)c(C)c1
2. CC1CCN(S(=O)(=O)c2ccc(NC(=O)c3ccncc3)cc2)CC1
3. O=C(COC(=O)c1ccccc1Oc1ccccc1)NC1CCS(=O)(=O)C1 (stereo not given)
4. COc1ccc2cc(C(=O)CS(=O)(=O)c3ccccc3)c(=O)oc2c1
5. COc1cc(OC)c(OC)cc1/C=N/NC(=O)CC1C(=O)NN=C1C (stereo not given)
6. COc1ccc(C(=O)NCC(=O)OCc2ccccc2F)cc1

Response:
[23.4, 7.49, 2.91, 3.93, 8.13, 6.15]

* * *

Can you tell me inhibition for the items I'm about to list?
- study_system: Large T antigen (Simian virus 40) (UniProt P03070)
- Sequence (P03070 whole entry, looked up): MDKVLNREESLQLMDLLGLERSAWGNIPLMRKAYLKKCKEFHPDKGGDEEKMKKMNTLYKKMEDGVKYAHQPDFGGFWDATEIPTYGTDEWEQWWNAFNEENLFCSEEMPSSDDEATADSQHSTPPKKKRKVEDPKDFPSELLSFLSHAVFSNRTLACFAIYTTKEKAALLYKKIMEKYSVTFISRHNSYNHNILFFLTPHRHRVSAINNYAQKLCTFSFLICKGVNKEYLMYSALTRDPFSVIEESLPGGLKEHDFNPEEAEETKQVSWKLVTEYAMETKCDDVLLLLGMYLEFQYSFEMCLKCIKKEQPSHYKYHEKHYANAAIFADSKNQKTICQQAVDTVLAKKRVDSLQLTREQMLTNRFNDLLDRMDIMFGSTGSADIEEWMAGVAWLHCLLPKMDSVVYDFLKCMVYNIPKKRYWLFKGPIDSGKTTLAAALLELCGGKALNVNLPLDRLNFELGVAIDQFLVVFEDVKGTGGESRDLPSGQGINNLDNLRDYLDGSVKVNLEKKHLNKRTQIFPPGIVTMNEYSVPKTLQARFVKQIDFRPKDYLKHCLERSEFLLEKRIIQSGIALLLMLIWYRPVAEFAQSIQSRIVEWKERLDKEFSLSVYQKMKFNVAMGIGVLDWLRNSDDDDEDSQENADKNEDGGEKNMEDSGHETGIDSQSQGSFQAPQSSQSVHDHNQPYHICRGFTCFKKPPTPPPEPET
- method: SV40 large T antigen inhibitors, biochemical (AID 1903)
- experimental_conditions: SV40 large T antigen ATPase/helicase inhibition assay; at 20 µM; active compounds read high
In all, about 310,000 compounds went through this assay and about 1,200 (0.39%) were called active. Only a sample is shown. Measured potencies and affinities stand elsewhere.
One number for each entry, in %.

Check out these entries, answers already filled in.
* COC(=O)C1=C(C(=O)OC)[C@@H]2N(C)c3ccc(OC)cc3[C@@]23C[C@@H](C(=O)OC)N(S(=O)(=O)c2ccc([N+](=O)[O-])cc2)C3=N1 | 1.76
* CC(C)c1ccc(C2/C(=C(\O)c3ccc4c(c3)OCCO4)C(=O)C(=O)N2CCN2CCOCC2)cc1 (configuration not stated) | 10.8
* CC1(C)Cc2ccccc2C(=C(C#N)C#N)N1 | 4.69
* COc1ccccc1OCCC(=O)NCc1ccc2c(c1)OCO2 | 8.06

Go through the items and report each one's inhibition.
1. Cc1ccc2[nH]c(=O)c(C(c3nnnn3C(C)(C)C)N(Cc3ccco3)CC3CCCO3)cc2c1 (configuration not stated)
2. O=C(CSc1nnc(CNC(=O)c2cccs2)o1)NC1CCCC1
3. Fc1ccc(C2=Nn3c(nnc3-c3ccco3)SC2)cc1
4. Cc1ccc(-c2[nH]ncc2C(=O)c2ccc(Br)cc2)c(O)c1

Response:
9.73
0.7
9.39
7.57

* * *

- study_system: Large T antigen (Simian virus 40) (UniProt P03070)
- method: SV40 large T antigen inhibitors, biochemical (AID 1903)
- experimental_conditions: SV40 large T antigen ATPase/helicase inhibition assay; at 20 µM; active compounds read high
Hit rate of the full screen: of about 310,000 compounds, about 1,200 (0.39%) were called active. A selection follows. Entries with a potency or affinity are not part of this list.
Can you tell me inhibition for the items I'm about to list?
Give bare numbers, in %.

Go through the items and report each one's inhibition.
1. CN1CCN(C(=O)c2cccn(Cc3ccc(C(F)(F)F)cc3)c2=O)CC1
2. CCOC(=O)C1C(=O)NC(SC)=C(C#N)C1c1ccccc1F (stereo unspecified)
3. Cc1cc(=O)oc2c(CN(CC(C)C)CC(C)C)c(O)ccc12

Response:
[2.45, 13.4, 15.8]

* * *

- study_system: Large T antigen (Simian virus 40)
- method: SV40 large T antigen inhibitors, biochemical (AID 1903)
- experimental_conditions: SV40 large T antigen ATPase/helicase inhibition assay; at 20 µM; active compounds read high
The whole screen tested about 310,000 compounds, of which about 1,200 (0.39%) were called active. Not all results are given here. Potency and affinity values are given separately.
measurement_kind: inhibition (%)
Answers are plain numbers, in %.

- O=Cc1ccc(O)c(O)c1: 34.4
- CNCCc1ccccn1: 13.3
- CN(Cc1ccccc1F)C(=O)c1sccc1-c1ccccc1: 20
- Nc1c(Cl)ncnc1N/N=C/c1cccc(O)c1: 28.2
- COc1ccc(C(=O)NCC(C)(C)CNC(=O)c2ccc(OC)cc2)cc1: 11.7

Go through the items and report each one's inhibition.
1. COc1ccc(/C=N/Nc2ncnc(Cl)c2N)cc1OC
2. CC(/C=C/c1ccccc1)=N/O
3. COc1cc(SC)ccc1C(=O)N1CCN(Cc2ccc3c(c2)OCO3)CC1
4. CCOC(=O)c1ccc(NC(=O)C(=O)NCc2ccccn2)cc1
5. CCOc1ccc(/C=N/Nc2nc(N3CCCC3)nc(N3CCCC3)n2)cc1OC
6. COc1ccc(N2CCN(C(=O)c3ccc(SC)cc3OC)CC2)cc1
7. N=C1/C(=C\c2ccc(Br)o2)C(=O)N=C2SC(CC(=O)N3CCOCC3)=NN12

Response:
[19, 10.9, 18.1, -2.35, -0.04, 18.7, 36.3]

* * *

- study_system: Large T antigen (Simian virus 40)
- method: SV40 large T antigen inhibitors, biochemical (AID 1903)
- experimental_conditions: SV40 large T antigen ATPase/helicase inhibition assay; at 20 µM; active compounds read high
About 1,200 (0.39%) of roughly 310,000 compounds were called active. A selection follows. Measured potencies and affinities stand elsewhere.
measurement_kind: inhibition

Go through the items and report each one's inhibition.
1. COc1ccc(/C=N/Nc2nc3ccccc3o2)cc1O
2. COc1ccc(Sc2ccc(/C=C3\C(=O)NN(c4ccccc4)C3=O)o2)cc1
3. COc1ccc(C2CC(=O)N3CN(c4ccccc4F)CSC3=C2C#N)cc1OC (configuration not stated)
4. N=C1/C(=C\c2ccc(-c3cccc(Cl)c3)o2)C(=O)N=C2SC=C(c3ccccc3)N12
5. CC(C)C(=O)Nc1ccc(-c2csc(-c3ccccc3)n2)cc1
6. O=S(=O)(c1ccc(-c2cnc(C3CC3)o2)cc1)N1CCN(c2ccccc2)CC1
7. C(=N\Nc1nc2ccccc2[nH]1)/c1ccccc1

Response:
["28.6% (inactive)", "32.2% (inactive)", "51.3% (inactive)", "7.39% (inactive)", "1.63% (inactive)", "7.98% (inactive)", "24.9% (inactive)"]

* * *

- study_system: Large T antigen (Simian virus 40)
- method: SV40 large T antigen inhibitors, biochemical (AID 1903)
- experimental_conditions: SV40 large T antigen ATPase/helicase inhibition assay; at 20 µM; active compounds read high
The whole screen tested about 310,000 compounds, of which about 1,200 (0.39%) were called active. The list is a sample of the results. Entries with a potency or affinity are not part of this list.
Can you tell me inhibition for the items I'm about to list?
One number for each entry, in %.

Check out these entries, answers already filled in.
• COc1ccccc1NC(=O)CCS(=O)(=O)c1cc2c(cc1Cl)NC(=O)CO2 = -2.36
• COc1ccc(-c2csc(-c3ccc(O)cc3)n2)cc1 = 21
• CN(C)Cc1c(O)ccc2c(=O)c(-c3ccc(Cl)cc3)coc12 = 2.49
• Cn1cc(C(=O)Nc2ccc(F)c(Cl)c2)cn1 = 8.31
• Cc1cc(Nc2ccccc2Cl)c2ccccc2n1 = 8.12
• O=C(NCc1ccco1)C1CC(c2ccc(F)cc2)=NO1 (stereo not drawn) = 6.38
• Nc1nc(Nc2ccccc2Cl)cc(=O)[nH]1 = 10.8

Query: Report inhibition for COc1ccc(-c2csc(C)n2)cc1OC please.
Response: 2.09
